QUANTITY_NAME: IC50 (µM)
Reply numerically in µM, unit not repeated.

Return IC50 measured with PIK3CA (UniProt P42336) given this compound: CCCCCCCCCCCCCCCC(=O)OC[C@@H](COP(=O)(O)O[C@H]1[C@H](O)[C@@H](O)[C@H](O)[C@@H](CO)[C@H]1O)OC(=O)CCCCCCCCCCCCCCC
Sequence (P42336 whole entry, looked up): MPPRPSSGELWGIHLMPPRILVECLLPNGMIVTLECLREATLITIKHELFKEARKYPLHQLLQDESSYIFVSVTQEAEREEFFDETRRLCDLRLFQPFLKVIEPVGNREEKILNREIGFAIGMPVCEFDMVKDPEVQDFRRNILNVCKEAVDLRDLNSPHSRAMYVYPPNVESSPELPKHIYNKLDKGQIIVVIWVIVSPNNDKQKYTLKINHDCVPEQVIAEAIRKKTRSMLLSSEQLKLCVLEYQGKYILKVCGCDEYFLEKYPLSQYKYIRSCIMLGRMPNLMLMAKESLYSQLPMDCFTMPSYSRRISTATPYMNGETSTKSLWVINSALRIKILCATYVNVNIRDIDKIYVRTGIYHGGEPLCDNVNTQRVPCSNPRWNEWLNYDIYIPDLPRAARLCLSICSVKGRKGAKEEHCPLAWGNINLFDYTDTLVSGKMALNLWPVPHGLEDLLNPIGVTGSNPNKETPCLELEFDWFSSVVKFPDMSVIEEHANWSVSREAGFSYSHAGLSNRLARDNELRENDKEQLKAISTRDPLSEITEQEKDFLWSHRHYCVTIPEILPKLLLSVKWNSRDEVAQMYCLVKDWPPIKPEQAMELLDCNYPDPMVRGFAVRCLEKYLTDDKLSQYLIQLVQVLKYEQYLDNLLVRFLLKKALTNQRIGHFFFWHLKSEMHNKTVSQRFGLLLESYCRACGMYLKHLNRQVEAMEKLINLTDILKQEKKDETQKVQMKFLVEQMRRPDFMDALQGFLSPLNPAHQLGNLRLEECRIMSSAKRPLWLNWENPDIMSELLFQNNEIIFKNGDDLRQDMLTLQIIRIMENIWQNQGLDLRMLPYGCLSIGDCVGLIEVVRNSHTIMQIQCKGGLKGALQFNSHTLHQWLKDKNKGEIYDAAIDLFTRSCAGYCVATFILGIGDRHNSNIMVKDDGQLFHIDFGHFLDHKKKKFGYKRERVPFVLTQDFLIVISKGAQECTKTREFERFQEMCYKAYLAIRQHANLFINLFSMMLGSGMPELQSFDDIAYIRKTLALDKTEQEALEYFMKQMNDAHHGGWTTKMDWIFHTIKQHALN
35

###

molecular target: PIK3CA (UniProt P42336); test: PI 3-Kinase Inhibition; conditions: concentration not given here
QUANTITY_NAME: inhibition

// returns reported inhibition for input CCCCCCCCCCCCCCCC(=O)OC[C@@H](COP(=O)(O)O[C@H]1[C@H](O)[C@@H](O)[C@H](O)[C@@H](CCl)[C@H]1O)OC(=O)CCCCCCCCCCCCCCC
60%

Given the entry CCCCCCCCCCCCCCCC(=O)OC[C@@H](COP(=O)(O)O[C@H]1[C@H](O)[C@@H](O)[C@H](O)[C@@H](CF)[C@H]1O)OC(=O)CCCCCCCCCCCCCCC , report its measured inhibition.
60%

Can you share its inhibition? I mean this compound: CCCCCCCCCCCCCCCC(=O)OC[C@@H](COP(=O)(O)O[C@H]1[C@H](O)[C@@H](O)[C@H](O)[C@@H](CN)[C@H]1O)OC(=O)CCCCCCCCCCCCCCC
> 98%

Recorded inhibition for CCCCCCCCCCCCCCCC(=O)OC[C@@H](COP(=O)(O)O[C@H]1[C@H](O)[C@@H](O)[C@H](O)[C@@H](CO)[C@H]1O)OC(=O)CCCCCCCCCCCCCCC , please?
85%

Reported inhibition, compound CCCCCCCCCCCCCCCC(=O)OC[C@@H](COP(=O)(O)O[C@H]1[C@H](O)[C@@H](O)[C@H](O)[C@@H](CI)[C@H]1O)OC(=O)CCCCCCCCCCCCCCC : ____
60%

Request the reported inhibition associated with CCCCCCCCCCCCCCCC(=O)OC[C@@H](COP(=O)(O)O[C@H]1[C@H](O)[C@@H](O)[C@H](O)[C@@H](CBr)[C@H]1O)OC(=O)CCCCCCCCCCCCCCC
60%

Origin of values: the Kinase Knowledgebase extract (Sharma et al. 2016)
